target: L1 transport system (large neutral amino acid carrier, L1-system carrier) (Rattus norvegicus, UniProt Q63016); construct: functionality of their endogenous transporters such as the L1-system carrier; endogenous in cells; host or cells: rat primary cerebrovascular (brain microcapillary) endothelial cells, RBEC; assay: Competitive binding assay to the brain L1 transport system (L-[U-14C]phenylalanine on rat primary cerebrovascular endothelial cells); details: 10^−6 M
Sequence (Q63016 whole entry): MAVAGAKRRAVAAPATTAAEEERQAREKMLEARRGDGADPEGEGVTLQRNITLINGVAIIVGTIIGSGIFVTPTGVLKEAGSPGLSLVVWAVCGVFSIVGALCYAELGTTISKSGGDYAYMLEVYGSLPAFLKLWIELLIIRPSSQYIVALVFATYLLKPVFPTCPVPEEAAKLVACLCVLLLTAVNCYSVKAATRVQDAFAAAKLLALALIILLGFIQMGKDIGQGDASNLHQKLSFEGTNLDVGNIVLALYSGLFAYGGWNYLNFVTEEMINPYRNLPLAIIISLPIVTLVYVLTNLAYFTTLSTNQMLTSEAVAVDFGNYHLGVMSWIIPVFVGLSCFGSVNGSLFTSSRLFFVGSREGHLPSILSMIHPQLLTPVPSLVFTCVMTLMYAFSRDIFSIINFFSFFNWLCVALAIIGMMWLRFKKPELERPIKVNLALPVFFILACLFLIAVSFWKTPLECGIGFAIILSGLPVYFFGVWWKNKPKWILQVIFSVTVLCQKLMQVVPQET
Sequence (Q794F9 whole entry partner): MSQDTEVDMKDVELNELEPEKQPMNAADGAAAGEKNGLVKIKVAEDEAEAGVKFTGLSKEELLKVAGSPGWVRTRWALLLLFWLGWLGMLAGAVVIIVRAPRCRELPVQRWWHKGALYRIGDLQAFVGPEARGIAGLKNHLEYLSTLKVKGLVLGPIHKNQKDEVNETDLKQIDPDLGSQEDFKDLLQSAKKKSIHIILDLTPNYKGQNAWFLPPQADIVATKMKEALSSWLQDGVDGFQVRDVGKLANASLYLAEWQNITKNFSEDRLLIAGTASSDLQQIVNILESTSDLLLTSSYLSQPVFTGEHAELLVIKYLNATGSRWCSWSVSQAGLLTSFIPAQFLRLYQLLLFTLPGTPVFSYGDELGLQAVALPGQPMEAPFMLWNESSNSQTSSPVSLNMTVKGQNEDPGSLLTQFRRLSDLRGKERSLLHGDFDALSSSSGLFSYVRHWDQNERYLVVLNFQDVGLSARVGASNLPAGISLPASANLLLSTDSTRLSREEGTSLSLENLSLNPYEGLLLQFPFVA
// reported Comparison with the Binding of Phenylalanine for each item listed

Sample answers from the record:
>>> assay_value("CCOC(=O)c1cnc(SCc2cccc(CC(N)C(=O)O)c2)[nH]c1=O (stereo not drawn) [Compound 131]")
"3 (X > 20 Rank 3)"
>>> assay_value("NC(Cc1ccc(-c2ccc(CSc3ncccn3)cc2)cc1)C(=O)O (stereo not drawn) [Compound 95]")
"2 (10 < X < 20 Rank 2)"

Query block: Look up and state reported Comparison with the Binding of Phenylalanine for NC(Cc1cccc(CSc2nccc(O)n2)c1)C(=O)O (stereo not drawn) [Compound 16]
Result block: 0 (X < 0 Rank 0)

Ref: patent US20060167057A1
